Each entry below carries its reported 100 nM Ag Bound (RU).
- Tgt: T1, hmm.hTfRC (REGN2431), human transferrin receptor extracellular domain with hexahistidine-myc-myc tag (human, UniProt P02786 89-760)
- T1 construct: Monomeric recombinant protein, 79210 g/mol; also called hTFR-mmh; His-myc-myc-hTFRC ecto
- Protocol text: SPR (Biacore), mAb captured on anti-human Fc, 100 nM hTFR-mmh, 25 C
I only need the number, in RU, no unit after it.

69326 (antibody, human IgG1, kappa, V domains shown, Tested as bivalent human IgG1 from CHO primary supernatant) VH: EVQLVESGGGLVQPGGSLRLSCAVSGFIFSSYEMNWVRQAPGKGLEWVSYISSSGSTIFYADSVKGRFTISRDNAKNSLYLQMNSLRAEDTAVYYCVSGVVLFDVWGQGTMVTVSS VL: EIVMTQSPATLSVSPGERATLSCRASQSVSSNFAWYQQKPGQAPRLLIYSASSRATGIPVRFSGSGSGTEFTLTISSLQSEDFAVYYCQQYNIWPRTFGQGTKVEIKR : 680
31874B (antibody, human IgG1, kappa, V domains shown, Tested as bivalent human IgG1 from CHO primary supernatant; also called H1H31874B; REGN17517) VH: EVQLVESGGGLVQPGGSLRLSCAASGFAFSSYAMTWVRQAPGKGLEWVSVISGTGGSTYYADSVKGRFTISRDNSKNTLYLQMNSLRAEDTAVYYCAKGGAARRMEYFQYWGQGTLVTVSS VL: DIQMTQSPSSLSASVGDRVTITCRASQGISNYLAWYQQKPGKVPNLLIYAASTLQSGVPSRFSGSGSGTDFTLTISSLQPEDVATYYCQKYNSAPLTFGGGTKVEIKR : 904
69348 (antibody, human IgG1, kappa, V domains shown, Tested as bivalent human IgG1 from CHO primary supernatant) VH: QVQLVESGGGVVQPGRSLRLSCAASGFTFTTYGMHWVRQAPGKGLEWVAVIWYDGSNKYYGDSVKGRFTISRDNSKNTLYLQMNSLRVDDTAVYYCTRTHGYTRSSDGFDYWGQGTLVTVSS VL: DIQMTQSPSSLSASVGDRVTITCRASQSIRNVLGWFQQKPGKAPQRLIYAASSLQSGVPSRFSGSGSGTEFTLTISSLQPEDFATYYCLQHNFYPLTFGGGTKVEIKR : 680
69332 (antibody, human IgG1, kappa, V domains shown, Tested as bivalent human IgG1 from CHO primary supernatant) VH: QVTLRESGPALVKPSQTLTLTCTFSGFSLNTYGMFVSWIRQPPGKALEWLAHIHWDDDKYYSTSLKTRLTISKDTSKNQVVLTMTNMDPVDTATYYCARGHNNLNYIIHWGQGTLVTVSS VL: AIQMTQSPSSLSASVGDRVTITCRASQGIRNDLGWYQQKPGKAPKLLIYAASTLQSGVPSRFSGSGSGTDFTLTISSLQPEDFATYYCLQDYNYPFTFGPGTKVDIKR : 9
31863B (antibody, human IgG1, kappa, V domains shown, Tested as bivalent human IgG1 from CHO primary supernatant) VH: EVQLVESGGGLVQPGGSLRLSCAASGFTFNSYAMTWVRQAPGKGLEWVSFIGGSTGNTYYAGSVKGRFTISSDNSKKTLYLQMNSLRAEDTAVYYCAKGGAARRMEYFQHWGQGTLVTVSS VL: DIQMTQSPSSLSASIGDRVTITCRASQGISNYLAWYQQKPGKVPKLLIYAASTLQSGVPSRFSGSGSGTDFTLTISSLQPEDVATYYCQNHNSVPLTFGGGTKVEIKR : 1080

Attention now shifts to the item below.
Identify measured 100 nM Ag Bound (RU) associated with 69307 (antibody, human IgG1, kappa, V domains shown, Tested as bivalent human IgG1 from CHO primary supernatant) VH: EVQLVESGGGLVQPGGSLRLSCTASGFTFSNYWMTWVRQAPGKGLEWVANIKEDGSEKEYVDSVKGRFTISRDNAKNSLYLQMNSLRGEDTAVYYCARDGEQLVDYYYYYVMDVWGQGTTVTVSS VL: DIQMTQSPSSVSASVGDRVTITCRASQGISSWLAWYQQKPGKAPKLLIYAASSLQSGVPSRFSGSGSGTDFTLTISSLQPEDFATYYCQKADSLPYAFGQGTKLEIKR 1280
